system: Plasmodium falciparum; assay: ST_JUDE: Plasmodium falciparum 3D7 EC50 (uM) as measured by SYBR green dye; assay type: functional, organism-based
endpointName: pEC50
Formally, pEC50 is defined as -log10 of the concentration c, with c in mol/L.

Reference set, count: 6
- compound: "CC(=O)Nc1ccc(S(=O)(=O)Nc2ccc(Nc3nc(C)cc(N(C)C)n3)cc2)cc1"
  pEC50: 5.71
- compound: "Cc1cccc(CN2C(=O)/C(=C\\c3ccccc3)Sc3ccc(C(=O)NCCN(C)C4CCCCC4)cc32)c1"
  pEC50: 5.75
- compound: "CN(C)c1ccc(/C=C/c2cc(/C=C/c3ccc(N(C)C)cc3)n3n[n+](C)nc3n2)cc1.[O-][Cl+3]([O-])([O-])[O-]"
  pEC50: 6.19
- compound: "C=CC[n+]1c(/C=C2\\C=CC=CN2CC)ccc2cc(C)ccc21"
  pEC50: 5.59
- compound: "CCOc1ccc(Nc2c3ccccc3nc3ccccc23)cc1"
  pEC50: 5.24
- compound: "CCO/C(O)=C1\\C(C)=NC2=C(C(=O)CC(c3ccc(OC)c(OC)c3)C2)C1c1ccc(SC)cc1 (centres undefined)"
  pEC50: 5.50

Q) Identify the reported pEC50 for the following entry. COCCN1C(=O)c2ccccc2C(C(=O)Nc2ccc(OC)c(Cl)c2)C1c1cccs1 (centres undefined)
A) 5.70

* * *

test system: Plasmodium falciparum; test: ST_JUDE: Plasmodium falciparum K1 EC50 (uM) as measured by SYBR green dye; format: functional, organism-based
The threshold is 3 µM. Values of EC50 beneath it are tagged YES; values meeting or exceeding it are tagged NO.

Reference set (3 entries):
- compound: "CN(C)c1ccc(C2N(C)c3ccccc3N2C)cc1"
  targetUnderTest: "Plasmodium falciparum"
  labelClass: "NO"
- compound: "Oc1ccc(Cl)cc1Nc1ncnc2ccc(Br)cc12"
  targetUnderTest: "Plasmodium falciparum"
  labelClass: "NO"
- compound: "COc1cccc(Nc2nc(NCC3CCCO3)c3ccccc3n2)c1 (stereo not given)"
  targetUnderTest: "Plasmodium falciparum"
  labelClass: "YES"

Q) # TODO verify EC50 < 3 µM strictly for this compound: CC1(C)CC(=O)C2=C(C1)OC(N)=C(C#N)C2c1ccc(F)cc1F (stereo not given)
A) NO

Q) # TODO verify EC50 < 3 µM strictly for this compound: "CN(C)c1ccc(/C=C/c2cc(/C=C/c3ccc(N(C)C)cc3)n3n[n+](C)nc3n2)cc1.[O-][Cl+3]([O-])([O-])[O-]"
A) YES

* * *

Collected pEC50 values appear next to each entry.
tested on: Plasmodium falciparum; experiment: ST_JUDE: Plasmodium falciparum 3D7 EC50 (uM) as measured by SYBR green dye; format: functional, organism-based
Formally, pEC50 is defined as -log10 of the concentration c, with c in mol/L.

Reference set, count: 3
- molecule: "CCOC(=O)c1c(CNCCN(CC)CC)n(C)c2cc(Br)c(O)cc12"
  targetUnderTest: "Plasmodium falciparum"
  pEC50: 5.54
- molecule: "CN(C)c1cc[n+](CC(=O)c2ccc(Cl)cc2)cc1"
  targetUnderTest: "Plasmodium falciparum"
  pEC50: 5.61
- molecule: "COc1ccc(C2C(C(=O)Nc3ccc(OC)cc3OC)c3ccccc3C(=O)N2C)cc1 (stereo not drawn)"
  targetUnderTest: "Plasmodium falciparum"
  pEC50: 5.38

Attention now turns to another entry.
Q) Identify the reported pEC50 for the following entry. "CCOc1ccccc1N1CCN(Cc2cc(Br)cc(Br)c2O)CC1"
A) 5.08
